# Target: T1, human transportin 1 (Trn1, residues 1-890) (human, UniProt Q92973-2 1-890)
# T1 construct: transportin 1 (Trn1), human, full-length, residues 1-890; numbers count on: the 890-residue form; Cloned in pGEX-4T-3 with a TEV site; clone was a gift from Y. M. Chook; source: E. coli BL21 (DE3), purified (glutathione Sepharose, TEV cleavage, HiTrap Q FF, Superdex 200)
# T1 sequence (looked up): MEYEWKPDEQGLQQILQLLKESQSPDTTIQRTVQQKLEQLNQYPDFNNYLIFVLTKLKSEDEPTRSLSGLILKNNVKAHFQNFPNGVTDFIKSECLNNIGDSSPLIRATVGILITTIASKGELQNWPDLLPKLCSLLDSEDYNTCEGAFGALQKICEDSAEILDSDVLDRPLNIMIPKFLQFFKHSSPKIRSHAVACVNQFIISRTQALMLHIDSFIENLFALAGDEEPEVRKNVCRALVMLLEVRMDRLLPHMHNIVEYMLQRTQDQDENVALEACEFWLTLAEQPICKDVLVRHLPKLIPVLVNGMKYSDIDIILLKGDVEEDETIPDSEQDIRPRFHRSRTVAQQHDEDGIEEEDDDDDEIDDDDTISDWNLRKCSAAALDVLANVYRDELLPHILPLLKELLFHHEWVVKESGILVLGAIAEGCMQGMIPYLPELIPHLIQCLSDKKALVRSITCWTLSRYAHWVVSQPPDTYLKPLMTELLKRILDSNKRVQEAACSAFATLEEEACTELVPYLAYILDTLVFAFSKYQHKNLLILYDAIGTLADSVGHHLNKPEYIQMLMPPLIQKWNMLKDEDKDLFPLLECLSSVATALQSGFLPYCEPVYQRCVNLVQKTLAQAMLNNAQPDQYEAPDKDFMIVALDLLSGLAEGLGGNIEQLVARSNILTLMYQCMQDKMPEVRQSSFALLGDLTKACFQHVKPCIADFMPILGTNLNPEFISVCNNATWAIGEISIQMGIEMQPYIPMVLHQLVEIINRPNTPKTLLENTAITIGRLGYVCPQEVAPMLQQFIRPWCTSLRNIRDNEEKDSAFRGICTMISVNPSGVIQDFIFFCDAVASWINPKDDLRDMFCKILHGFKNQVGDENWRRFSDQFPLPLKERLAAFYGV
# Test protocol: SPR; BIAcore 3000, 25°C; Trn1 immobilised on a CM5 chip by amine coupling (about 8600 RU); FUS-NLS injected at increasing concentrations, 50 µl/min; 20 mM HEPES pH 7.3, 110 mM potassium acetate, 2 mM magnesium acetate, 2 mM EGTA, 2 mM DTT, 10% glycerol, 0.005% Tween 20; 1:1 Langmuir fit
# Measurement setup: both partners purified
Rule: Kd below 8 nM gives true (1). Equal to or above 8 nM gives false (0).

Please let me know if RGGRGGGDRGGFGPGKMDSRGEHRQDRRSRPY (domain or fragment, human, UniProt P35637 495-526, looked up, Designed from the structure; not found in familial ALS patients; not shown: GST, N-terminal, cleaved) [FUS-NLS(E523S)] shows Kd below 8 nM.
true (1)

Please let me know if RGGRGGGDRGGFGPGKMDSRGEHKQDRRERPY (domain or fragment, human, UniProt P35637 495-526, looked up, ALS-associated mutation found in patients; made by site-directed mutagenesis; not shown: GST, N-terminal, cleaved) [FUS-NLS(R518K)] shows Kd below 8 nM.
false (0)

Answer whether the binder RGGRGGGDRGGFGPGKMDSRGEHRQDRRESPY (domain or fragment, human, UniProt P35637 495-526, looked up, ALS-associated mutation found in patients; made by site-directed mutagenesis; not shown: GST, N-terminal, cleaved) [FUS-NLS(R524S)] has Kd strictly less than 8 nM
false (0)

Dear colleague, could you confirm whether Kd of RGGRGGGDRGGFGPGKMDSRCEHRQDRRERPY (domain or fragment, human, UniProt P35637 495-526, looked up, ALS-associated mutation found in patients; made by site-directed mutagenesis; not shown: GST, N-terminal, cleaved) [FUS-NLS(G515C)] falls below 8 nM? Thanks.
true (1)

Does the reported Kd of RGGRGGGDRGGFGPGKMDSRGEHRQDRRERPY (domain or fragment, UniProt P35637 495-526, looked up, Cloned in pGEX-6P-2; also called FUS-NLS(WT); WT; not shown: GST, N-terminal, cleaved) [nuclear localization sequence of human FUS (FUS-NLS, residues 495-526), wild type] stay below 8 nM?
true (1)

Kd strictly < 8 nM for this binder? RGGRGGGDRGGFGPGKMDPRGEHRQDRRERPY (domain or fragment, human, UniProt P35637 495-526, looked up, ALS-associated mutation found in patients; made by site-directed mutagenesis; not shown: GST, N-terminal, cleaved) [FUS-NLS(S513P)]
true (1)

Strictly below 8 nM in Kd? RGGRGGGDRGGFGPGKMDSRGEHRQDGRERPY (domain or fragment, human, UniProt P35637 495-526, looked up, ALS-associated mutation found in patients; made by site-directed mutagenesis; not shown: GST, N-terminal, cleaved) [FUS-NLS(R521G)]
false (0)
